Please provide measured relative viability for the entries that follow.
# Tested on: NCI-H1666
# protocol: relative viability (nuclei count vs DMSO), 5 days (fraction); higher = more cells survive
# experimental setup: first compound 0.8 µM
Just the number, please, no unit attached.

Entry C=C1C(=O)O[C@@H](CCCCCCCC)[C@@H]1C(=O)O [C-75] + CCNC(=O)c1noc(-c2cc(C(C)C)c(O)cc2O)c1-c1ccc(CN2CCOCC2)cc1 [Luminespib] (partner 0.01 µM) — recorded relative viability = 1

Entry Oc1nc(-c2ccc(C(F)(F)F)cc2)nc2c1CSCC2 [XAV939] + O=C(c1cc(Cc2n[nH]c(=O)c3ccccc23)ccc1F)N1CCN(C(=O)C2CC2)CC1 [Olaparib] (partner 8 µM) — recorded relative viability = 0.745

Entry Oc1nc(-c2ccc(C(F)(F)F)cc2)nc2c1CSCC2 [XAV939] + C[C@]1(O)C[C@@H](c2nc(-c3ccc4ccc(-c5ccccc5)nc4c3)c3c(N)nccn32)C1 [Linsitinib] (partner 1 µM) — recorded relative viability = 0.712

Entry C=C1C(=O)O[C@@H](CCCCCCCC)[C@@H]1C(=O)O [C-75] + Cc1nc(NC(=O)N2CCC[C@H]2C(N)=O)sc1-c1ccnc(C(C)(C)C(F)(F)F)c1 [Alpelisib] (partner 2 µM) — recorded relative viability = 0.879

Entry Oc1nc(-c2ccc(C(F)(F)F)cc2)nc2c1CSCC2 [XAV939] + COc1cccc2cc(-c3nc([C@H]4CC[C@H](C(=O)O)CC4)n4ncnc(N)c34)[nH]c12 [OSI-027] (partner 0.5 µM) — recorded relative viability = 0.752

Entry Oc1nc(-c2ccc(C(F)(F)F)cc2)nc2c1CSCC2 [XAV939] + C[C@@H](Oc1cc(-c2cnn(C3CCNCC3)c2)cnc1N)c1c(Cl)ccc(F)c1Cl [Crizotinib] (partner 1 µM) — recorded relative viability = 0.781

Entry Oc1nc(-c2ccc(C(F)(F)F)cc2)nc2c1CSCC2 [XAV939] + O=C(CCCCCCC(=O)Nc1ccccc1)NO [Vorinostat] (partner 1 µM) — recorded relative viability = 0.906

Entry C=C1C(=O)O[C@@H](CCCCCCCC)[C@@H]1C(=O)O [C-75] + C[C@@H](Oc1cc(-c2cnn(C3CCNCC3)c2)cnc1N)c1c(Cl)ccc(F)c1Cl [Crizotinib] (partner 1 µM) — recorded relative viability = 0.928

Entry C=C1C(=O)O[C@@H](CCCCCCCC)[C@@H]1C(=O)O [C-75] + Nc1ncn([C@H]2C[C@H](O)[C@@H](CO)O2)c(=O)n1 [Decitabine] (partner 2 µM) — recorded relative viability = 0.709

Entry Oc1nc(-c2ccc(C(F)(F)F)cc2)nc2c1CSCC2 [XAV939] + Nc1nc2[nH]cc(CCc3ccc(C(=O)N[C@@H](CCC(=O)O)C(=O)O)cc3)c2c(=O)[nH]1 [Pemetrexed] (partner 0.2 µM) — recorded relative viability = 0.864

Entry Oc1nc(-c2ccc(C(F)(F)F)cc2)nc2c1CSCC2 [XAV939] + Cc1cc(Nc2cc(N3CCN(C)CC3)nc(Sc3ccc(NC(=O)C4CC4)cc3)n2)n[nH]1 [Tozasertib] (partner 0.1 µM) — recorded relative viability = 0.599

Entry Oc1nc(-c2ccc(C(F)(F)F)cc2)nc2c1CSCC2 [XAV939] + Cc1nc(Nc2ncc(C(=O)Nc3c(C)cccc3Cl)s2)cc(N2CCN(CCO)CC2)n1 [Dasatinib] (partner 0.075 µM) — recorded relative viability = 0.761
